This collection of values is drawn from paper PMC9482650.

Biological target: DLG1_3, Q12959
Sequence (Q12959 457-571): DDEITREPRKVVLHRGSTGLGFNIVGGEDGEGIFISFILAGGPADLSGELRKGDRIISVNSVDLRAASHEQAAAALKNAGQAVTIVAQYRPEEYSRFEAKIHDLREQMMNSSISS
Assay: holdup assay
Set-up: key: below the threshold = too weak to quantify, mostly under pKd 3.1 to 4
Details: plain residues with an end cap or a label only (N-terminal biotin on a linker: ado-ado)
Property: pKd

In [3]: df
Out[3]:
                         binder       recorded_value
0    DPAESMESLV [PTPRG, P23470]  below the threshold
1   TGLWKHETTV [ADGRA3, Q8IWK6]                 4.78
2     LAHVKHKEQI [AQP3, Q92482]  below the threshold
3  GIKKITSTAL [RPS6KA3, P51812]                 3.99
